Read-out: Human Leukocyte Antigen - DR isotype (HLADR), HLA-DRA (gene 3122)
measurement-description: BSK_3C_HLADR: BioMAP Diversity Plus: 3C Assay for Human Leukocyte Antigen - DR isotype (HLADR) Biomarker Activity (AID 2283019)
condition-context: primary human endothelial cells (HUVEC); actives raise or lower the signal
Calls of active or inactive are those of the source. Rule for the calls: active = hit-call score of the fitted dose curve at least 0.9, where 1 is the maximum; inactive = score below 0.9.
Choose the fitting class; nothing outside active, inactive is accepted.

>  <compound>
Cc1c(O)cccc1O

>  <category>
inactive

$$$$
>  <compound>
CC(C)[N+](C)(CCOC(=O)C1c2ccccc2Oc2ccccc21)C(C)C

>  <category>
inactive

$$$$
>  <compound>
CCOC(=O)C1=NN(c2ccc(Cl)cc2Cl)C(C)(C(=O)OCC)C1 (centres undefined)

>  <category>
inactive

$$$$

Task: Write down the call the test reported for this compound. Item: CCCC(C)C(=O)OCC (centres undefined)
Output: inactive

Task: Hi, sorry to bother you, what did the test record for `O=C1CCCCCCCCCCCN1` ?
Output: inactive

Task: What outcome does the record of this test show for `O=C(Oc1ccccc1)c1ccccc1C(=O)Oc1ccccc1` ?
Output: active

Task: Hello, I am checking results. What call was entered for `Oc1ccc(/C=C/c2cc(O)cc(O)c2)cc1` ?
Output: active

Task: Record request — test call for `Clc1cc(Cl)c(Cl)c(Cl)c1Cl`
Output: active

Task: Query: recorded result category for `CC(C)c1cccc(C(C)C)c1N` in this test
Output: active

Task: Please let me know the test result on file for `CCOC(=O)C1=NOC(c2ccccc2)(c2ccccc2)C1` .
Output: inactive

Task: Assay outcome for `Nc1ccc(C(=O)O)cc1` : what was it?
Output: inactive

Task: In this assay, the call recorded for `O=C1CCCCCCCCCCC1` was what?
Output: inactive

Task: # fetch the recorded call for CCC1(C)C(=O)N(Cl)C(=O)N1Cl (centres undefined) here
Output: inactive

Task: Recorded test call requested for `Oc1c(Cl)cc(Cl)c(Cl)c1Cl`
Output: active
